Assay: Determination of the acute toxicity (seven-day, single intraperitoneal dose)
Conditions: in vivo, ip, white NMRI mouse, fasting, single i.p. dose, probit analysis
Entries and their measured LD50 at 168 h follow.
# unit: mg/kg | format: bare number

See these solved cases before continuing.
> print(dat)
                                   compound        readout  data.value
1  COC(=O)c1c(OCc2ccccc2)c2cc(Cl)ccc2n1CCN(C)C.Cc1ccc(S(=O)(=O)O)cc1 [(E)]  LD50 at 168 h         283
2  COC(=O)c1c(OC)c2ccccc2n1CCCNC(C)C.Cl [(G)]  LD50 at 168 h          91
3  COC(=O)c1c(OC)c2ccc(C)cc2n1CCN(C)C.Cl [(B)]  LD50 at 168 h          68

Could you please provide reported LD50 at 168 h for COC(=O)c1c(OC)c2ccccc2n1CCCCN(C)C.Cc1ccc(S(=O)(=O)O)cc1 [(H)] ? Thanks! 164

Fill in reported LD50 at 168 h for this entry: COc1c(C(N)=O)n(CCN(C)C)c2ccccc12 [(L)] 68

Provide LD50 at 168 h value for the following compound: CCOC(=O)c1c(OCC)c2ccc(Cl)cc2n1CCN(C)C.Cc1ccc(S(=O)(=O)O)cc1 [(F)] 226

In one line, give reported LD50 at 168 h of the entry CNC(=O)c1c(OC)c2ccccc2n1CCN(C)C [(M)] . 68

This collection of values is drawn from patent US4374846A.
